molecular target: T1, serum purified human Complement Factor D (human, UniProt P00746 26-253); experiment: SPR Biacore, antibody on protein A chip, single cycle kinetics, 25 C
T1 construct: Serum purified protein flowed over the captured antibodies; also called CFD; human CFD
T1 sequence (P00746 26-253): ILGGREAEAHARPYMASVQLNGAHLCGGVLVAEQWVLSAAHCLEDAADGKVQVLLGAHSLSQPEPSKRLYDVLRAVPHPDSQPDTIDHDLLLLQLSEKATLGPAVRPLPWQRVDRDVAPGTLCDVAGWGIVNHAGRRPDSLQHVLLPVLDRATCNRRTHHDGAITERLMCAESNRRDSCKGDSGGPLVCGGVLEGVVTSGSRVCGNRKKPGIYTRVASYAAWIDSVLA
Assay endpoint: pKd
# reply with the number alone; pKd is -log10 of concentration in mol/L

Q: Using the record for 34I54I59D84S / 54R101V (antibody, human IgG1, V domains shown, Human IgG1 kappa; also called OG1965) VH: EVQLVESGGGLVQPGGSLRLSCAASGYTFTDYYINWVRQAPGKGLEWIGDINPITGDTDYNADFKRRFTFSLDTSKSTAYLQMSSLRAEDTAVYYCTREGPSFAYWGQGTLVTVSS VL: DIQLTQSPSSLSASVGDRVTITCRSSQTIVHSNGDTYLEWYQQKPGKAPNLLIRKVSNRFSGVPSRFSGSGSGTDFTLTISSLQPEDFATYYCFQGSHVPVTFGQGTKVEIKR , report its pKd.
Ans: 11.36

Q: Using the record for KCD119 TAF / KCD119 TAF (antibody, V domains shown, Humanized KCD119; tested as full antibody captured on protein A; also called D19 TAF) VH: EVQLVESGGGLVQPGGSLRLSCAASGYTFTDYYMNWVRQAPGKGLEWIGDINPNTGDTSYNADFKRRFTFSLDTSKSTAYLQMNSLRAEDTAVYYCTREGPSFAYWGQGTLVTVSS VL: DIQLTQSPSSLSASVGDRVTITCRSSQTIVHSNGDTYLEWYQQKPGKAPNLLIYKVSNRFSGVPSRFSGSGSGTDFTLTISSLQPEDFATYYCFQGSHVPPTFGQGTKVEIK , report its pKd.
Ans: 9.95
